// values below are IC50; system is Epidermal growth factor receptor (Homo sapiens, UniProt P00533, L858R)
Sequence (P00533 25-1210 L858R limits assumed): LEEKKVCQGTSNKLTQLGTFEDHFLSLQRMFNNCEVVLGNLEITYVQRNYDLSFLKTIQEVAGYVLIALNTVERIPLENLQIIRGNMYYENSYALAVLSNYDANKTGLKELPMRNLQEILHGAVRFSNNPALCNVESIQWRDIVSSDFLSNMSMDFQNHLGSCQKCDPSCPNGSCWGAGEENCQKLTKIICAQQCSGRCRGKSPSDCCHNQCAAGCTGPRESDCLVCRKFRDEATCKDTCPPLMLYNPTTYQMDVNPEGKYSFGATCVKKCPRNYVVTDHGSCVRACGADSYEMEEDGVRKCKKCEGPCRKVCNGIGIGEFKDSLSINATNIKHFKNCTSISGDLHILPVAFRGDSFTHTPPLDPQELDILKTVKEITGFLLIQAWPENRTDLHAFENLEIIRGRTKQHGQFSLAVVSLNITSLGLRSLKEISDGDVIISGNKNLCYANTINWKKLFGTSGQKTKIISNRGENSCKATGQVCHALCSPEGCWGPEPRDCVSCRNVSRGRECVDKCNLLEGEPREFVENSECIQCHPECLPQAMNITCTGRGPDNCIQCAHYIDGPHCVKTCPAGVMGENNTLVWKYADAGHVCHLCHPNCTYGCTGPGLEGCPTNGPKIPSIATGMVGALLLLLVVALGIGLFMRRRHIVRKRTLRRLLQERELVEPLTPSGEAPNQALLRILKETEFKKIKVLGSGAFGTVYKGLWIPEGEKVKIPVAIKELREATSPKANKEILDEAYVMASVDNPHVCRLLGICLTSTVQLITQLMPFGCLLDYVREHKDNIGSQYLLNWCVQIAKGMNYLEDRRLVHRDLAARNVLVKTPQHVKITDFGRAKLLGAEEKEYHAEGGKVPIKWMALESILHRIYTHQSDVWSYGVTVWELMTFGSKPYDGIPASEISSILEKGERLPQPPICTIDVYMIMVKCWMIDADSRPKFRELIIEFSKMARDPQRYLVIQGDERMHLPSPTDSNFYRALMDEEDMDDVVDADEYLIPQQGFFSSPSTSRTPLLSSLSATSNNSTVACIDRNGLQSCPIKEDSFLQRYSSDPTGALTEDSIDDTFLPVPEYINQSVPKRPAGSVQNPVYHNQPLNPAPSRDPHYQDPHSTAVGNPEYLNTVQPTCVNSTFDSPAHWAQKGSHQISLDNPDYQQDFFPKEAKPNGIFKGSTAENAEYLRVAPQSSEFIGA
Use nM as the unit, but write only the number.

Please review the entries below; each comes with its answer.
C=CC(=O)Nc1cc(Nc2n[nH]c3cc(-c4cn(C)c5ccccc45)ccc23)c(OC)cc1N(C)CCN(C)C    1.5
C=CC(=O)Nc1cc(Nc2n[nH]c3ccc(-c4ccc5ccccc5c4)cc23)c(OC)cc1N(C)CCN(C)C    2.2

Any idea what IC50 was measured for `C=CC(=O)Nc1cc(Nc2n[nH]c3cc(-c4ccc5ccccc5c4)ccc23)c(OC)cc1N(C)CCN(C)C` ?
25

====

Molecular target: Epidermal growth factor receptor (Homo sapiens, UniProt P00533)
Sequence (P00533 whole entry): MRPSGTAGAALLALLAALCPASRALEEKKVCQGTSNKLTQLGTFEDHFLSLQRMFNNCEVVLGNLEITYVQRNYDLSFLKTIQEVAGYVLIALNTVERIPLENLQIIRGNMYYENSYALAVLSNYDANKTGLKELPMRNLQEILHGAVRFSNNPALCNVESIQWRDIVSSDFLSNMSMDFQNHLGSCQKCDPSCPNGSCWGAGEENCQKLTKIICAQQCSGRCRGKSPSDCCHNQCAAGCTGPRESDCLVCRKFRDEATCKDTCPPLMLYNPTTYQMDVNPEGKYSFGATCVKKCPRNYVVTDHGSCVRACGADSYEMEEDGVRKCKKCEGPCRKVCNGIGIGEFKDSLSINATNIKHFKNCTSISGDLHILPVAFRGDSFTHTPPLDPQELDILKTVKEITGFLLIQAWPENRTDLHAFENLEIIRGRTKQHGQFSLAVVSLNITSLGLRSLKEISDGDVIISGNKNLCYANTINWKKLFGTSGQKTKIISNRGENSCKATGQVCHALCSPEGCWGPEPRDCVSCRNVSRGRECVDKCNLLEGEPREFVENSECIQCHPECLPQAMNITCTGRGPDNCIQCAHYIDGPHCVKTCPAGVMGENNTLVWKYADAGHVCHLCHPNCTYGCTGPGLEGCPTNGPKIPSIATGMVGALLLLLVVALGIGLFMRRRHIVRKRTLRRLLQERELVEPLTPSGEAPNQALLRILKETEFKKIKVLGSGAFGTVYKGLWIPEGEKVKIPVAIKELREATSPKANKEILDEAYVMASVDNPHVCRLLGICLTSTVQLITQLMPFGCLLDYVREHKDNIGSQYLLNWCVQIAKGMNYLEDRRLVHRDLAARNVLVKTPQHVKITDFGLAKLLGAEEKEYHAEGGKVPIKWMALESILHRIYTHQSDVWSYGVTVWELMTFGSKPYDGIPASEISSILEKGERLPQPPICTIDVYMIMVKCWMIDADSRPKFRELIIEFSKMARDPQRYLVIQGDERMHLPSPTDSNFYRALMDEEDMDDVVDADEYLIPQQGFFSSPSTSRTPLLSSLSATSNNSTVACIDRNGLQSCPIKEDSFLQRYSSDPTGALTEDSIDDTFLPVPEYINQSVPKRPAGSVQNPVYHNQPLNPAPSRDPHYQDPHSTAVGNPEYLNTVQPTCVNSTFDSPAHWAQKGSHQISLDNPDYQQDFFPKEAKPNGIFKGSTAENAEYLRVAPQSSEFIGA
Test: Inhibition of wild-type EGFR in human A431 cells assessed as reduction in cell viability after 96 hrs by CellTiterGlo assay
Format: ADME, cell-based
Let's look at some molecules and their measured pEC50.
Here pEC50 is given on a logarithmic scale as minus log10 of the concentration in mol/L.

C=CC(=O)Nc1cc(Nc2n[nH]c3ccc(-c4cccc5ccccc45)cc23)c(OC)cc1N(C)CCN(C)C    5.56
C=CC(=O)Nc1cc(Nc2n[nH]c3ccc(-c4ccc(F)cc4)cc23)c(OC)cc1N(C)CCN(C)C    5.68
C=CC(=O)Nc1cc(Nc2n[nH]c3cc(-c4cccc(F)c4)ccc23)c(OC)cc1N(C)CCN(C)C    5.64
C=CC(=O)Nc1cc(Nc2n[nH]c3cc(-c4cccc(C(F)(F)F)c4)ccc23)c(OC)cc1N(C)CCN(C)C    5.45
C=CC(=O)Nc1cc(Nc2n[nH]c3ccccc23)ccc1N(C)CCN(C)C    5.22

What measured pEC50 goes with `C=CC(=O)Nc1cc(Nc2n[nH]c3cc(-c4ccc5ccccc5c4)ccc23)c(OC)cc1N(C)CCN(C)C` ?
5.78

What value of pEC50 has been recorded for this entry: `C=CC(=O)Nc1cc(Nc2n[nH]c3ccccc23)c(OC)cc1N(C)CCN(C)C`
4.98

Item `C=CC(=O)Nc1cc(Nc2n[nH]c3cc(-c4cn(C)c5ccccc45)ccc23)c(OC)cc1N(C)CCN(C)C` has what recorded pEC50?
5.66

# get_value(readout='pEC50', item= `C=CC(=O)Nc1cc(Nc2n[nH]c3cc(-c4cccc(N(C)C)c4)ccc23)c(OC)cc1N(C)CCN(C)C` )
5.46

Requested field: pEC50. Item: `C=CC(=O)Nc1cc(Nc2n[nH]c3cc(Nc4cccc(F)c4)ccc23)c(OC)cc1N(C)CCN(C)C`
5.51

Which pEC50 reading was recorded for the molecule `C=CC(=O)Nc1cc(Nc2n[nH]c3cc(-c4ccc(F)cc4)ccc23)c(OC)cc1N(C)CCN(C)C` ?
5.66

Reported pEC50, molecule `C=CC(=O)Nc1cc(Nc2n[nH]c3cc(-c4cncc5ccccc45)ccc23)c(OC)cc1N(C)CCN(C)C` : ____
5.55

What does the data say about its pEC50? Entry: `C=CC(=O)Nc1cc(Nc2n[nH]c3cc(-c4ccc(N(C)C)cc4)ccc23)c(OC)cc1N(C)CCN(C)C`
5.85

pEC50 for `C=CC(=O)Nc1cc(Nc2n[nH]c3cc(-c4cccnc4)ccc23)c(OC)cc1N(C)CCN(C)C` ?
5.25

// pEC50 lookup, key: `C=CC(=O)Nc1cc(Nc2n[nH]c3ccc(-c4ccc5ccccc5c4)cc23)c(OC)cc1N(C)CCN(C)C`
5.75

Could you share which pEC50 value was measured for `C=CC(=O)Nc1cc(Nc2n[nH]c3cc(-c4ccncc4)ccc23)c(OC)cc1N(C)CCN(C)C` ?
5.40
